These data points were gathered from ChEMBL document CHEMBL1240399.

Kindly state MIC for each of the entries shown.
Test system: Escherichia coli
EXPERIMENT: Antibacterial activity against Escherichia coli DH5alpha
Assay type: functional
Give bare numbers, in µg/mL.

SMILES NOTATION: CCN1CCN(C(=O)N[C@@H](C(=O)N[C@@H]2C(=O)N3[C@@H]2SC(C)(C)[C@@H]3C(=O)O)c2ccccc2)C(=O)C1=O
UOM: µg/mL
MIC: 1

// returns reported MIC for input "CO/N=C(\C(=O)N[C@@H]1C(=O)N2C(C(=O)O)=C(COC(C)=O)CS[C@H]12)c1csc(N)n1"
0.12

====

Test system: Pseudomonas aeruginosa
EXPERIMENT: Antibacterial activity against Pseudomonas aeruginosa NL68 expressing GES-13 beta lactamase
Format: functional
REPORTED METRIC: MIC (µg/mL)
Answers are plain numbers, in µg/mL.

Use these answered entries as a reference point.
COMPOUND: CO/N=C(\C(=O)N[C@@H]1C(=O)N2C(C(=O)[O-])=C(C[N+]3(C)CCCC3)CS[C@H]12)c1csc(N)n1
MIC (µg/mL): 64
--
COMPOUND: C[C@@H](O)[C@H]1C(=O)N2C(C(=O)O)=C(S[C@@H]3CN[C@H](C(=O)N(C)C)C3)[C@H](C)[C@H]12
MIC (µg/mL): 32
--
COMPOUND: CCN1CCN(C(=O)N[C@@H](C(=O)N[C@@H]2C(=O)N3[C@@H]2SC(C)(C)[C@@H]3C(=O)O)c2ccccc2)C(=O)C1=O
MIC (µg/mL): 256

Continue with the next compound.
Request the reported MIC associated with C[C@@H](O)[C@H]1C(=O)N2C(C(=O)O)=C(SCCNC=N)C[C@H]12 [IMIPENEM ANHYDROUS]
16
